All values here come from ChEMBL document CHEMBL3112479.

System: Staphylococcus aureus
Experiment: Antimicrobial activity against methicillin-resistant Staphylococcus aureus clinical isolate 3167 after 20 hrs by two-fold serial dilution technique
Format: functional
Conditions: isolate 3167, 20 h
// classify: if (MIC < 30 µg/mL) Met else Not met

Reference set, count: 5
Molecule: Cc1cccc(-c2nnc([C@H](Cc3ccccc3)N3C(=O)CSC3=S)o2)c1
System name: Staphylococcus aureus
Class: Met

Molecule: O=C1CSC(=S)N1Cc1nnc(-c2cccc(Br)c2)o1
System name: Staphylococcus aureus
Class: Met

Molecule: Cc1cccc(-c2nnc(CN3C(=O)CSC3=S)o2)c1
System name: Staphylococcus aureus
Class: Not met

Molecule: Cc1ccc(-c2nnc(CN3C(=O)CSC3=S)o2)cc1
System name: Staphylococcus aureus
Class: Not met

Molecule: Cc1cccc(-c2nnc(CN3C(=O)/C(=C/c4ccc(C(=O)O)cc4)SC3=S)o2)c1
System name: Staphylococcus aureus
Class: Not met

# ---- query molecule ----
[in] Please state whether MIC is below 30 µg/mL for O=C1CSC(=S)N1Cc1nnc(-c2ccc(Br)cc2)o1
[out] Not met

* * *

Tested on: Staphylococcus aureus
Test: Antimicrobial activity against Staphylococcus aureus 503 after 20 hrs by two-fold serial dilution technique
Format: functional
Settings: Staphylococcus aureus, 503, 20 h
Parameter: MIC

Compound: Cc1ccccc1-c1nnc(CN2C(=O)CSC2=S)o1
System name: Staphylococcus aureus
MIC: 64 µg/mL
--
Compound: COc1c(N2CCNC(C)C2)c(F)cc2c(=O)c(C(=O)O)cn(C3CC3)c12 (stereo not given)
System name: Staphylococcus aureus
MIC: 4 µg/mL
--
Compound: O=C1CSC(=S)N1Cc1nnc(-c2ccc(Cl)cc2)o1
System name: Staphylococcus aureus
MIC: 64 µg/mL
--
Compound: O=C1CSC(=S)N1[C@@H](Cc1ccccc1)c1nnc(-c2cccc(Br)c2)o1
System name: Staphylococcus aureus
MIC: > 64 µg/mL
--
Compound: Cc1cccc(-c2nnc(CN3C(=O)/C(=C/c4ccc(C(=O)O)cc4)SC3=S)o2)c1
System name: Staphylococcus aureus
MIC: 32 µg/mL

[in] I would be grateful if you could share the reported MIC for O=C(O)c1ccc(/C=C2\SC(=S)N(Cc3nnc(-c4cccc(Br)c4)o3)C2=O)cc1 .
[out] 16 µg/mL

[in] MIC for O=C1CSC(=S)N1Cc1nnc(-c2ccc(Br)cc2)o1 ?
[out] 64 µg/mL

[in] Form field: reported MIC of O=C1CSC(=S)N1Cc1nnc(-c2cccc(Cl)c2)o1
[out] 32 µg/mL

[in] Could you tell me which MIC is on file for O=C1CSC(=S)N1Cc1nnc(-c2ccccc2Br)o1 ?
[out] 64 µg/mL

[in] Endpoint output: MIC of O=C(O)c1ccc(/C=C2\SC(=S)N(Cc3nnc(-c4cccc(Cl)c4)o3)C2=O)cc1 . Value?
[out] 16 µg/mL

* * *

System: Staphylococcus aureus
Assay: Antimicrobial activity against quinolone-resistant Staphylococcus aureus clinical isolate 3519 after 20 hrs by two-fold serial dilution technique
Type: functional
Conditions: isolate 3519, 20 h
Catalogue of molecules with associated MIC
Write the value in µg/mL as a bare number.

Molecule: O=C(O)c1ccc(/C=C2\SC(=S)N([C@@H](Cc3ccccc3)c3nnc(-c4cccc(Cl)c4)o3)C2=O)cc1
Numeric readout: 4
//
Molecule: O=C1CSC(=S)N1Cc1nnc(-c2ccccc2Br)o1
Numeric readout: 32
//
Molecule: Cc1cccc(-c2nnc(CN3C(=O)CSC3=S)o2)c1
Numeric readout: 32
//
Molecule: Cc1ccccc1-c1nnc(CN2C(=O)CSC2=S)o1
Numeric readout: 64
//
Molecule: Cc1onc(-c2ccccc2)c1C(=O)N[C@@H]1C(=O)N2[C@@H]1SC(C)(C)[C@@H]2C(=O)O
Numeric readout: 1

[in] Would you kindly share the measured MIC for COc1c(N2CCNC(C)C2)c(F)cc2c(=O)c(C(=O)O)cn(C3CC3)c12 (stereo not given) ?
[out] 4

[in] Tell me the measured MIC of O=C1CSC(=S)N1Cc1nnc(-c2cccc(Cl)c2)o1 , please.
[out] 32

[in] Entry O=C1CSC(=S)N1Cc1nnc(-c2ccc(Cl)cc2)o1 : reported MIC = ?
[out] 64

[in] Field request: MIC | item: Cc1cccc(-c2nnc([C@H](Cc3ccccc3)N3C(=O)/C(=C/c4ccc(C(=O)O)cc4)SC3=S)o2)c1
[out] 4

[in] Could you tell me which MIC is on file for O=C1CSC(=S)N1Cc1nnc(-c2cccc(Br)c2)o1 ?
[out] 32
